Assay: Cellular Toxicity (caspase-3) BJ (AID 658);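 as to caspase-3 activation: cells exposed to compound for 16 hours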
Conditions: BJ fibroblasts, luminescence; caspase-3 activation; series mostly up to 91.7 µM
Active and inactive are the calls of the source. Calls follow the shape of the dose curve; as a rule, active = well fitted curve in the direction sought with a large enough effect; inconclusive = small, poorly fitted or top-dose-only effect, or another doubt; inactive = no such curve, though single readings can be large or run the other way.
Hello, when you answer, please use one of the following outcomes: active, inactive

Please review the following examples before continuing.
sampleSmiles: [O]=[Cr](=[O])([OH])[O][Cr](=[O])(=[O])[OH]
discreteLabel: active
//
sampleSmiles: O=[N+]([O-])c1ccc(F)c([N+](=O)[O-])c1
discreteLabel: inactive

Tell me the recorded outcome of this test for "O=C(O)C(Cl)(Cl)Cl" .
inactive

Tell me the recorded outcome of this test for "ClC(Cl)(Cl)Cl" .
inactive
